Test system: KM12 colon
assayOverview: NCI-60 one-dose screen, 48 h (100 = growth as untreated, 0 = no growth, -100 = all killed)
statedConditions: 10 µM unless noted
About 83,000 compounds went through this panel and 20% of them were active in at least one assay; those are over-represented in the sample as a whole.
readoutName: growth (%)
Number in %, nothing else.

{"compound": "C=C(C)[C@@H]1CC[C@]2(c3nnc(-c4ccncc4)o3)CC[C@]3(C)[C@H](CC[C@@H]4[C@@]5(C)CCC(=O)NC(C)(C)[C@@H]5CC[C@]43C)[C@@H]12", "assayResult": 98.9}
{"compound": "Nc1nc2c3ccncc3cc(-c3cccc(Cl)c3)c2c2cnccc12", "assayResult": 46.2}
{"compound": "Cc1ccc(-c2nc3ccc(Cl)cc3c(=O)n2N2C(=O)CSC2c2ccccc2Cl)cc1 (centres undefined)", "assayResult": 82.3}
{"compound": "Cc1cc(C)c(NC(=O)c2sc3nc4c(cc3c2N)CCCC4)c(C)c1", "assayResult": 34.9}
{"compound": "O=C1C=Cc2ncccc2C1=O", "assayResult": 104}

For the compound Cc1ccc2[nH]cc(-c3nc(-c4cn(C)c5ncccc45)cs3)c2c1 , report growth. 77.9

For the compound Cc1nnc2nc(N)[nH]n2c1=O , report growth. 96

For the compound c1ccc(CN2C(c3ccccc3)=Nc3ccccc3C2c2c[nH]c3ccccc23)cc1 (centres undefined) , report growth. 56.8

For the compound CC(C)(C)c1nc(-c2ccc(O)c(O)c2)cs1 , report growth. 76.7

For the compound COC(=O)[C@]12CC[C@@H](C)[C@H](C)[C@@H]1C1=CC[C@@H]3[C@@]4(C)C(c5ncon5)=C[C@@](C)(CO)C4=CC[C@@]3(C)[C@]1(C)CC2 , report growth. -47.6

For the compound N#CC1=C(N)Oc2ccc3ccccc3c2C1c1ccccc1Cl (centres undefined) , report growth. 36

For the compound C=C(C)[C@@H]1CC[C@]2(C(=O)NNC(=O)c3cccnc3)CC[C@]3(C)[C@H](CC[C@@H]4[C@@]5(C)CCCNC(C)(C)[C@@H]5CC[C@]43C)[C@@H]12 , report growth. 78.4

For the compound Cn1cc(-c2nc(-c3c[nH]c4ncccc34)cs2)c2ccccc21 , report growth. 12.9

For the compound C[C@@H](Oc1ccc(C(=O)NS(=O)(=O)C(C)(C)C)cc1C(F)(F)F)c1ccc(Oc2ccccc2)cn1 , report growth. 28.3

For the compound COc1cnc2c(c1)C(=O)c1c-2n(CCCNC(C)C)c(=O)c2cc([N+](=O)[O-])ccc12 , report growth. -39.8

For the compound Clc1ccc(Cn2cc(-c3nc4ccc(Br)nc4n3Cc3ccc(Cl)cc3)c3cccnc32)cc1 , report growth. 95.9

* * *

System: A549/ATCC NSCLC
assayOverview: NCI-60 one-dose screen, 48 h (100 = growth as untreated, 0 = no growth, -100 = all killed)
statedConditions: 10 µM unless noted
The panel holds about 83,000 compounds, 20% with a hit somewhere; the sample as a whole holds those more often.
readoutName: growth (%)
Number in %, nothing else.

The cases that follow already have their growth on record.
{"compound": "COc1cc2[nH]c(C(=O)c3cc(OC)c(OC)c(OC)c3)c(N)c2cc1C#CC1CC1", "measurementTarget": "A549/ATCC NSCLC", "growth, %": 42.9}
{"compound": "CN(C)c1ccc(C(=O)c2ccc(N(C)C)c(N)c2)cc1N", "measurementTarget": "A549/ATCC NSCLC", "growth, %": 56}
{"compound": "N#C/C(=C\\c1ccc(-c2ccc(Cl)cc2)o1)c1nc(-c2ccco2)cs1", "measurementTarget": "A549/ATCC NSCLC", "growth, %": 91.9}
{"compound": "O=C1c2ccccc2NC(c2cn(-c3ccccc3)nc2-c2cccnc2)N1Cc1ccccc1 (centres undefined)", "measurementTarget": "A549/ATCC NSCLC", "growth, %": 102}
{"compound": "Cn1c(=O)c2c(ncn2CC(=O)Nc2ccc(S(N)(=O)=O)cc2)n(C)c1=O", "measurementTarget": "A549/ATCC NSCLC", "growth, %": 88.3}
{"compound": "Cc1nn(-c2ccc(Cl)cc2)c(=O)n1CCn1cnc2ccccc21", "measurementTarget": "A549/ATCC NSCLC", "growth, %": 106}

For the compound COc1ccc(NC(=O)c2ccc3c(c2)nc(-c2cc4ccccc4[nH]c2=O)n3-c2cc(C(C)(C)C)[nH]n2)cc1 , report growth. 93.7

For the compound C=C1C(=O)O[C@H]2[C@H]1CC/C(COC(=O)N[C@H](Cc1c[nH]c3ccccc13)C(=O)OC)=C\CC[C@@]1(C)O[C@@H]21 , report growth. 82.4

For the compound Oc1ccc(CCC2CCCC(CCc3ccc(OCCF)cc3)N2)cc1 (centres undefined) , report growth. 91

For the compound COc1ccc2[nH]cc(-c3nc(-c4c[nH]c5ncccc45)cs3)c2c1 , report growth. 22.4

For the compound CCOC(=O)c1ccc2c(c1)[n+](=O)c(C(=O)C1CCCS1)c(C(F)(F)F)n2[O-] (centres undefined) , report growth. -94.9

For the compound Cn1cc(-c2csc(-c3cn(C(=O)OC(C)(C)C)c4ccccc34)n2)c2cccnc21 , report growth. 52.9

For the compound CCCCN1CCCCn2c1nc1c2c(=O)n(C)c(=O)n1C , report growth. 89

For the compound COc1cc(NC(C)CN(CC(C)C)C(C)C)c2ncccc2c1 (centres undefined) , report growth. 105

For the compound CN(C)c1ccc(N=C2C=CC(=O)C=C2)cc1 , report growth. 102

For the compound Cc1ccc(-c2nc([P+](c3ccccc3)(c3ccccc3)c3ccccc3)c(N3C[C@H]4C[C@H](C3)c3cccc(=O)n3C4)o2)cc1 , report growth. 99.1

For the compound C=C(C)[C@@H]1CC[C@]2(CN)CC[C@]3(C)[C@H](CC[C@@H]4[C@@](C)(CCCN)[C@H](C(=C)C)CC[C@]43C)[C@@H]12 , report growth. 82.7

For the compound Nc1c(C(=O)Nc2cccc(Br)c2)sc2nc3c(cc12)C(=O)CCC3 , report growth. 24.4

For the compound Cn1cc(-c2csc(-c3cn(CCN)c4ccc(Br)cc34)n2)c2cccnc21 , report growth. 37.5
